Biological target: T1, ScpA_(S512A), active site serine to alanine mutant of recombinant Streptococcal C5a peptidase ScpA, residues … (Streptococcus pyogenes, UniProt P15926 31-1032, S512A)
T1 construct: mimics the form released from the cell surface by SpeB; catalytic residues D130, H193, S512; also called S512A active site mutant of ScpA; source: recombinant, from plasmid pGEX ScpA_((31-1032)) mutated with QuickChange II; purified
T1 sequence: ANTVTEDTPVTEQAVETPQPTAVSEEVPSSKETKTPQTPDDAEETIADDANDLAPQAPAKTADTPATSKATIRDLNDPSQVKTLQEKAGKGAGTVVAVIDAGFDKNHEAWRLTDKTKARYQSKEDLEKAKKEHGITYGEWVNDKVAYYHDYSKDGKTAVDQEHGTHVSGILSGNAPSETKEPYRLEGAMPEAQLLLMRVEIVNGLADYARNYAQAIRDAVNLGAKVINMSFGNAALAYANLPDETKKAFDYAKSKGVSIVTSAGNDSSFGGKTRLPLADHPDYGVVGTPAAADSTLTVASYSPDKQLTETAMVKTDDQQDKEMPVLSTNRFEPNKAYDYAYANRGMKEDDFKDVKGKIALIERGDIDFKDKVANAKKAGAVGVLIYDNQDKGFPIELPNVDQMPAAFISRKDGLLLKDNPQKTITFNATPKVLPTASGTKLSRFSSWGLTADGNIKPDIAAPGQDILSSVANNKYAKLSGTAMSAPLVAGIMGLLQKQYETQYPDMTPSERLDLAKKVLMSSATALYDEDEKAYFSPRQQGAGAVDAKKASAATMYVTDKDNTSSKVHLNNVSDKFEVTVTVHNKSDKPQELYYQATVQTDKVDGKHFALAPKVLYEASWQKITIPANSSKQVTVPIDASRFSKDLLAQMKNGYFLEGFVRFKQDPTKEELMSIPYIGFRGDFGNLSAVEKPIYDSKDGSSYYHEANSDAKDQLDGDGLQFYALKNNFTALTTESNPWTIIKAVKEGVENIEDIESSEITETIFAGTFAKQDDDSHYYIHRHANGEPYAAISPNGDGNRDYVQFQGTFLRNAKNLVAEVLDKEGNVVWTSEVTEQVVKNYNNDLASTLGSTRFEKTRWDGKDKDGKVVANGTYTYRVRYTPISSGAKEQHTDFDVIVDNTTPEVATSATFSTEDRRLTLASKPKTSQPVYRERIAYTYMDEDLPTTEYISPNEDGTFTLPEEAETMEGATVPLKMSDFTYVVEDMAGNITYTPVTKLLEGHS
Assay: SPR; His-tagged rhC5a immobilised on NTA sensor chip, ScpA_(S512A) flowed over; 25 °C; Hepes buffer with 750 mM NaCl; 1:1 Langmuir model
Settings: both partners purified
test readout: Kd (nM)
Just the number please, in nM, no unit attached.

Dear colleague, please send me the reported Kd for recombinant human C5a, N-ter hexa-histidine tagged (rhC5a) (natural protein, UniProt P01031 678-751, looked up, β-mercaptoethanol added to C27 in the refolding process, numbers count on: the mature C5a (1-74); His-tagged form immobilised on the NTA chip in SPR; also called full length rhC5a; not shown: His6, N-terminal, kept) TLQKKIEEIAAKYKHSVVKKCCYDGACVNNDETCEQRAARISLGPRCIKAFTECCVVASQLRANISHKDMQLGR when you can.
256
